- MEASURED_TARGET: human Nav1.8 (Homo sapiens, UniProt Q9Y5Y9)
- Sequence (Q9Y5Y9 whole entry): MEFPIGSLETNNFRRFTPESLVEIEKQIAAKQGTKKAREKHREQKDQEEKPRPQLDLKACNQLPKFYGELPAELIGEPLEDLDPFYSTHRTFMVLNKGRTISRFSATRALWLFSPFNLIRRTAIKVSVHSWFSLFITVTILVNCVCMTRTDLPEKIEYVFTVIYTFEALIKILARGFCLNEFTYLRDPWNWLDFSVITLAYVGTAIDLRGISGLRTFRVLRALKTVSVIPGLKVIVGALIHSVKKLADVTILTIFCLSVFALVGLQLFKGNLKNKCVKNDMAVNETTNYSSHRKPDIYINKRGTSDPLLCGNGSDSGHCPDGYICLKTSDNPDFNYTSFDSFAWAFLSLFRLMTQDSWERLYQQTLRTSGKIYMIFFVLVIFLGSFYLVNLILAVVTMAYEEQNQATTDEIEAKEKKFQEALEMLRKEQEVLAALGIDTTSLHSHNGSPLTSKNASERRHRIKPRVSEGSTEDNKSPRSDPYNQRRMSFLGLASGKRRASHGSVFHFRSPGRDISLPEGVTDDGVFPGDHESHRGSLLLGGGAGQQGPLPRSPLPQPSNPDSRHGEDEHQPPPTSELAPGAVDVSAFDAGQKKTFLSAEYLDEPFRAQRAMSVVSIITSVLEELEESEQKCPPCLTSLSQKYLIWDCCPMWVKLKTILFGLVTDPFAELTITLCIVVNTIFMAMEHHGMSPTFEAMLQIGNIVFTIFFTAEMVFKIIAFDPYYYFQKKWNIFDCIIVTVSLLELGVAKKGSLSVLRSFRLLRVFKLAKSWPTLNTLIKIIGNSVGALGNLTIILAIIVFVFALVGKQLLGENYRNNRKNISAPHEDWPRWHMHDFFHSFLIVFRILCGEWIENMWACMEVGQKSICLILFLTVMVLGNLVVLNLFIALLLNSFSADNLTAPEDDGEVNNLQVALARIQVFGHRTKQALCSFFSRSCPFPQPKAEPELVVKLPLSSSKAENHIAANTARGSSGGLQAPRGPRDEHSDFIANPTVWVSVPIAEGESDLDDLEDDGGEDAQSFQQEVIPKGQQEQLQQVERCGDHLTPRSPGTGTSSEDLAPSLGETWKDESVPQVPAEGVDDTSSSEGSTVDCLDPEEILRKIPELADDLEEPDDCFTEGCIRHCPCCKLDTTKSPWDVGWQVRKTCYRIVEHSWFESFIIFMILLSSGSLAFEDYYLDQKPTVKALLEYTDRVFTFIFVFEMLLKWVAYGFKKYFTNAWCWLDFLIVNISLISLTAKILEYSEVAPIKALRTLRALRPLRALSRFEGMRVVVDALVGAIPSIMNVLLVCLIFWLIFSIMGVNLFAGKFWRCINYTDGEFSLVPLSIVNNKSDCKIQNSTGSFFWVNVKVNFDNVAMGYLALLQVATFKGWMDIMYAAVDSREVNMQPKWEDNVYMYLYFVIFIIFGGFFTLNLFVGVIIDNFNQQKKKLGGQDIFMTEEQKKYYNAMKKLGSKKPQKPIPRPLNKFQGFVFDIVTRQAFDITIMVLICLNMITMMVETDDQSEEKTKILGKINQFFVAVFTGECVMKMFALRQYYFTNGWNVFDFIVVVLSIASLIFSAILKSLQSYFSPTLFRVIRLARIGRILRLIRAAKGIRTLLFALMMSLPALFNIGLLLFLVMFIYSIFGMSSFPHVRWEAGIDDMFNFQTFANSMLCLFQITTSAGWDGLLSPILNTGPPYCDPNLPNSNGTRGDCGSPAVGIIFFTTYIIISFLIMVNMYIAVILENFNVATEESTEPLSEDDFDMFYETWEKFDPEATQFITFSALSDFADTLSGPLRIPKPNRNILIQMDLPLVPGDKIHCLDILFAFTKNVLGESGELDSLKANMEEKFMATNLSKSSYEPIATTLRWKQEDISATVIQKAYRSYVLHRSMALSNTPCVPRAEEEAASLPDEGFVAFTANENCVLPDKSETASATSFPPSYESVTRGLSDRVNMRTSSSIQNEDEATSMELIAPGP
- EXPERIMENT: SyncroPatch384PE assay (automated patch clamp)
- Type: cell-based
- APPLIED_CONDITIONS: resting state block (P1 measurement), human Nav1.8/b3 CHO cells, read-out: P1 IC50
Structures can show the parent of a compound that is named as a salt.
# maps each entry to its IC50

Sample answers from the record:
COMPOUND: COc1ccc(-c2nnc(N3CCCC(F)(F)CC3)c(C(=O)Nc3cccc([S@@](C)(=N)=O)c3)c2C)cc1 (single isomer, unassigned)
MEASURED_PROPERTY: IC50
RESULT: > 200 nM

COMPOUND: Cc1c(-c2ccc(F)cc2)cnc(N2CCCC(F)(F)CC2)c1C(=O)Nc1cccc(S(C)(=N)=O)c1 (stereo not shown)
MEASURED_PROPERTY: IC50
RESULT: ≤ 5 nM

COMPOUND: Cc1c(N2CC3(COC3)C2)nnc(N2CCCC(F)(F)CC2)c1C(=O)Nc1cccc([S@](C)(=N)=O)c1
MEASURED_PROPERTY: IC50
RESULT: > 200 nM

COMPOUND: C[S@@+]([O-])c1cc(NC(=O)c2cc(Cl)c(C(F)(F)F)cc2N2CCCC(F)(F)CC2)ccc1F
MEASURED_PROPERTY: IC50
RESULT: ≤ 5 nM

COMPOUND: Cc1c(C(F)(F)F)nnc(N2CCCC(F)(F)CC2)c1C(=O)Nc1cccc([S@@](C)(=N)=O)c1
MEASURED_PROPERTY: IC50
RESULT: 5 to 50 nM

COMPOUND: Cc1c(-c2ccccc2)cnc(N2CCCC(F)(F)CC2)c1C(=O)Nc1cccc([S@](C)(=N)=O)c1
MEASURED_PROPERTY: IC50
RESULT: ≤ 5 nM

COMPOUND: CNCC(=O)N=[S@](C)(=O)c1cccc(NC(=O)c2c(N3CCCC(F)(F)CC3)ncc(C(F)(F)F)c2C)c1
MEASURED_PROPERTY: IC50
RESULT: ≤ 5 nM

COMPOUND: Cc1nc(N2CCCC(F)(F)CC2)c(C(=O)Nc2cccc(S(C)(=N)=O)c2)cc1C(F)(F)F (stereo not shown)
MEASURED_PROPERTY: IC50
RESULT: ≤ 5 nM

COMPOUND: NC(=O)c1cccc(NC(=O)c2nnc(C(F)(F)F)cc2N2CCCC(F)(F)CC2)c1
MEASURED_PROPERTY: IC50
RESULT: > 200 nM

COMPOUND: Cc1c(C#N)cnc(N2CCCC(F)(F)CC2)c1C(=O)Nc1cccc([S@](C)(=N)=O)c1
MEASURED_PROPERTY: IC50
RESULT: 5 to 50 nM

Measured on human Nav1.8 (Homo sapiens, UniProt Q9Y5Y9), "Cc1c(-c2cccc(F)c2)cnc(N2CCCC(F)(F)CC2)c1C(=O)Nc1cccc([S@](C)(=N)=O)c1" has a documented IC50 of ≤ 5 nM

Simply: "Cc1c(-c2cnn(C3CC3)c2)cnc(N2CCCC(F)(F)CC2)c1C(=O)Nc1cccc([S@](C)(=N)=O)c1" , human Nav1.8 (Homo sapiens, UniProt Q9Y5Y9), IC50 = 5 to 50 nM

Entry "CNCC(=O)N=[S@](C)(=O)c1cccc(NC(=O)c2c(N3CCCC(F)(F)CC3)ncc(-c3cnn(C4CC4)c3)c2C)c1" , tested on human Nav1.8 (Homo sapiens, UniProt Q9Y5Y9), has a reported IC50 of ≤ 5 nM

Item: "Cc1c(C(F)(F)F)cnc(N2CCCC(F)(F)CC2)c1C(=O)Nc1cccc([S@@](C)(=O)=NC(=O)CN2CC(F)(F)C2)c1" | System: human Nav1.8 (Homo sapiens, UniProt Q9Y5Y9) | IC50: ≤ 5 nM

Here "Cc1c(-c2cnn(C)c2)nnc(N2CCCC(F)(F)CC2)c1C(=O)Nc1cccc([S@](C)(=N)=O)c1" was tested on human Nav1.8 (Homo sapiens, UniProt Q9Y5Y9), and its IC50 came to > 200 nM

IC50 value, target or system human Nav1.8 (Homo sapiens, UniProt Q9Y5Y9), for "CS(=O)(=O)c1cccc(NC(=O)c2nnc(C(F)(F)F)cc2N2CCCC(F)(F)CC2)c1" : > 200 nM

IC50 value, target or system human Nav1.8 (Homo sapiens, UniProt Q9Y5Y9), for "Cc1c(F)cnc(N2CCCC(F)(F)CC2)c1C(=O)Nc1cccc([S@](C)(=N)=O)c1" : 5 to 50 nM

// IC50 (human Nav1.8 (Homo sapiens, UniProt Q9Y5Y9)) for "Cc1c(C(=O)Nc2cccc([S@@](C)(=O)=NC(=O)CN)c2)c(N2CCCC(F)(F)CC2)nc(C(F)(F)F)c1-c1cnn(C)c1" = ≤ 5 nM

// returns IC50 for Cc1c(C(F)(F)F)nnc(N2CCCC(F)(F)CC2)c1C(=O)Nc1cccc(S(=N)(N)=O)c1 (stereo not shown) with human Nav1.8 (Homo sapiens, UniProt Q9Y5Y9); value = ≤ 5 nM

Here "Cc1c(C(F)(F)F)nnc(N2CCCC(F)(F)CC2)c1C(=O)Nc1cccc(S(C)(=N)=N)c1" was tested on human Nav1.8 (Homo sapiens, UniProt Q9Y5Y9), and its IC50 came to 100 to 200 nM

// returns IC50 for Cc1c(-c2cnn(C)c2)cnc(N2CCCC(F)(F)CC2)c1C(=O)Nc1cccc([S@@](C)(=O)=NC(=O)C2CNC2)c1 [Example 51, formate] with human Nav1.8 (Homo sapiens, UniProt Q9Y5Y9); value = 5 to 50 nM

Response field IC50 (human Nav1.8 (Homo sapiens, UniProt Q9Y5Y9)) for item "Cc1c(-c2ccc(C(F)F)cc2)nnc(N2CCCC(F)(F)CC2)c1C(=O)Nc1cccc([S@](C)(=N)=O)c1" : 5 to 50 nM

GET /values?item= "Cc1c(C(F)(F)F)nnc(N2CCCC(F)(F)CC2)c1C(=O)Nc1cccc([S@@](C)(=O)=NC(=O)CO)c1" &system= human Nav1.8 (Homo sapiens, UniProt Q9Y5Y9) returns IC50: ≤ 5 nM

---

- MEASURED_TARGET: human Nav1.8 (Homo sapiens, UniProt Q9Y5Y9)
- EXPERIMENT: SyncroPatch384PE assay (automated patch clamp)
- Type: cell-based
- APPLIED_CONDITIONS: resting state block (P1 measurement), human Nav1.8/b3 CHO cells, read-out: P1 IC50
Structures can show the parent of a compound that is named as a salt.
MEASURED_PROPERTY: IC50

Some solved entries appear below for comparison.
COMPOUND: Cc1c(-c2cn[nH]c2)cnc(N2CCCC(F)(F)CC2)c1C(=O)Nc1cccc([S@](C)(=N)=O)c1
MEASURED_TARGET: human Nav1.8 (Homo sapiens, UniProt Q9Y5Y9)
IC50: > 200 nM
//
COMPOUND: Cc1c(-c2cnn(C)c2)nnc(N2CCCC(F)(F)CC2)c1C(=O)NC12CC(C(N)=O)(C1)C2
MEASURED_TARGET: human Nav1.8 (Homo sapiens, UniProt Q9Y5Y9)
IC50: ≤ 5 nM
//
COMPOUND: Cc1c(-c2cnn(C)c2)cnc(N2CCCC(F)(F)CC2)c1C(=O)Nc1cccc([S@](C)(=N)=O)c1
MEASURED_TARGET: human Nav1.8 (Homo sapiens, UniProt Q9Y5Y9)
IC50: 50 to 100 nM
//
COMPOUND: Cc1c(N2CC3(COC3)C2)cnc(N2CCCC(F)(F)CC2)c1C(=O)Nc1cccc([S@](C)(=N)=O)c1
MEASURED_TARGET: human Nav1.8 (Homo sapiens, UniProt Q9Y5Y9)
IC50: > 200 nM
//
COMPOUND: CNCC(=O)N=[S@](C)(=O)c1cccc(NC(=O)c2c(N3CCCC(F)(F)CC3)ncc(-c3ccc4c(c3)OCCO4)c2C)c1
MEASURED_TARGET: human Nav1.8 (Homo sapiens, UniProt Q9Y5Y9)
IC50: ≤ 5 nM

Measured IC50 of "Cc1c(C(F)(F)F)cnc(N2CCCC(F)(F)CC2)c1C(=O)Nc1cccc([S@@](C)(=N)=O)c1" : ≤ 5 nM

According to the records, this compound Cc1c(-c2cnn(C)c2)cnc(N2CCCC(F)(F)CC2)c1C(=O)Nc1cccc([S@@](C)(=O)=NC(=O)[C@H](C)N)c1 [Example 76, formate] displays IC50 of ≤ 5 nM

IC50 recorded for this compound, Cc1c(-c2ccncc2)cnc(N2CCCC(F)(F)CC2)c1C(=O)Nc1cccc(S(C)(=N)=O)c1 (centres unmarked) , is 50 to 100 nM

Form field IC50, entry "Cc1c(N2CC3(COC3)C2)cnc(N2CCCC(F)(F)CC2)c1C(=O)Nc1cccc([S@@](C)(=N)=O)c1" : 100 to 200 nM

GET /value?item= "Cc1c(Cl)c(C#N)nc(N2CCCC(F)(F)CC2)c1C(=O)Nc1cccc([S@](C)(=N)=O)c1" &field=IC50 returns ≤ 5 nM
